Assay: MTT cytotoxicity assay, HepG2
Assay type: cell-based, human
Conditions: human, HepG2 cells (hepatocellular carcinoma), HepG2, 100 ug/ml, 48 h, read-out: % Cell viability
observationType: viability at 48 h, 100 µg/ml (%)
Just the number in %, nothing appended.

molecule="COc1cccc2c1C(=O)c1c(O)c3c(c(O)c1C2=O)C[C@@](O)(C(=O)CO)C[C@@H]3O[C@H]1C[C@H](N)[C@H](O)[C@H](C)O1 [Doxorubicin, reference compound]" observationtype="viability at 48 h, 100 µg/ml" quantityunit=% numericvalue=7.95

stdin: Entry under review: COc1c(O)cc2oc(-c3ccccc3)c(OC)c(=O)c2c1O [5,7-Dihydroxy-3,6-dimethoxyflavone] . Reported viability at 48 h, 100 µg/ml?
stdout: 16.5

----------
Measured cytotoxicity at 48 h, 100 µg/ml values are reported for all entries that follow.
Test: MTT cytotoxicity assay, Caco-2
Format: cell-based, human
Details: human, Caco-2 cells (human colonic epithelial cells), Caco-2, 100 ug/ml, 48 h
Just the number in %, nothing appended.

molecule="COc1cccc2c1C(=O)c1c(O)c3c(c(O)c1C2=O)C[C@@](O)(C(=O)CO)C[C@@H]3O[C@H]1C[C@H](N)[C@H](O)[C@H](C)O1 [Doxorubicin, reference compound]" numericvalue=92.1

stdin: Entry under review: COc1c(O)cc2oc(-c3ccccc3)c(OC)c(=O)c2c1O [5,7-Dihydroxy-3,6-dimethoxyflavone] . Reported cytotoxicity at 48 h, 100 µg/ml?
stdout: 86.7

----------
Assay: MTT cytotoxicity assay, HepG2
Assay type: cell-based, human
Details: human, HepG2 cells (hepatocellular carcinoma), HepG2, 6.25 ug/ml, 48 h, read-out: % Cell viability
observationType: viability at 48 h, 6.25 µg/ml (%)
Just the number in %, nothing appended.

compound="COc1c(O)cc2oc(-c3ccccc3)c(OC)c(=O)c2c1O [5,7-Dihydroxy-3,6-dimethoxyflavone]" numericvalue=75.1

Next:
stdin: Entry under review: COc1cccc2c1C(=O)c1c(O)c3c(c(O)c1C2=O)C[C@@](O)(C(=O)CO)C[C@@H]3O[C@H]1C[C@H](N)[C@H](O)[C@H](C)O1 [Doxorubicin, reference compound] . Reported viability at 48 h, 6.25 µg/ml?
stdout: 68.2

----------
Experiment: MTT cytotoxicity assay, HepG2
Type: cell-based, human
Conditions: human, HepG2 cells (hepatocellular carcinoma), HepG2, 50 ug/ml, 48 h, read-out: % Cell viability
observationType: viability at 48 h, 50 µg/ml
# do not omit the unit; it follows the number

molecule="COc1cccc2c1C(=O)c1c(O)c3c(c(O)c1C2=O)C[C@@](O)(C(=O)CO)C[C@@H]3O[C@H]1C[C@H](N)[C@H](O)[C@H](C)O1 [Doxorubicin, reference compound]" result=24%

Next:
stdin: Entry under review: COc1c(O)cc2oc(-c3ccccc3)c(OC)c(=O)c2c1O [5,7-Dihydroxy-3,6-dimethoxyflavone] . Reported viability at 48 h, 50 µg/ml?
stdout: 30.1%

----------
Measured cytotoxicity at 48 h, 50 µg/ml values are reported for all entries that follow.
Experiment: MTT cytotoxicity assay, Caco-2
Assay type: cell-based, human
Details: human, Caco-2 cells (human colonic epithelial cells), Caco-2, 50 ug/ml, 48 h
Method: The assessment of cytotoxicity for the methanolic extract and isolated flavonoids was performed under controlled and sterile conditions within a Class II A2 Laminar flow biosafety cabinet. […] The effectiveness of the extract was compared to that of the reference drug, Doxorubicin. The percentage of cell viability was calculated by taking the ratio of the absorbance of the plant extract to that of the control, multiplied by 100. […]
Just the number in %, nothing appended.

compound="COc1c(O)cc2oc(-c3ccccc3)c(OC)c(=O)c2c1O [5,7-Dihydroxy-3,6-dimethoxyflavone]" observationtype="cytotoxicity at 48 h, 50 µg/ml" numericvalue=66.5

Next:
stdin: Entry under review: COc1cccc2c1C(=O)c1c(O)c3c(c(O)c1C2=O)C[C@@](O)(C(=O)CO)C[C@@H]3O[C@H]1C[C@H](N)[C@H](O)[C@H](C)O1 [Doxorubicin, reference compound] . Reported cytotoxicity at 48 h, 50 µg/ml?
stdout: 71.2
